For each of the compounds below, state its Amax (maximum % activation achieved).
target: Neurolysin (Nln) (Rattus norvegicus); construct: polyhistidine (N); made in house; host or cells: Escherichia coli (pBAD/His vector), if the rat enzyme of b61 was used; assay: Nln activation in isolated enzyme assay (A50, Amax); assay type: biochemical; details: 100% = normal enzyme turnover; 95% CI in parentheses

The compound N[C@@H](Cc1c[nH]cn1)C(=O)NCc1ccc2ccccc2c1 [DF-9-2] , when measured on Neurolysin (Nln) (Rattus norvegicus), yielded Amax (maximum % activation achieved) of 262.3 (246.7 to 279.4) %

The compound N[C@@H](Cc1c[nH]cn1)C(=O)NCc1cccc2ccccc12 [SR-9-1d] , when measured on Neurolysin (Nln) (Rattus norvegicus), yielded Amax (maximum % activation achieved) of 264 (256.3 to 272.6) %

The compound N[C@@H](Cc1c[nH]cn1)C(=O)NCCc1ccc(F)cc1 [DF-2-2B] , when measured on Neurolysin (Nln) (Rattus norvegicus), yielded Amax (maximum % activation achieved) of 323.1 (311.4 to 335.6) %

The compound COc1cccc(CCNC(=O)[C@H](N)Cc2c[nH]cn2)c1 , when measured on Neurolysin (Nln) (Rattus norvegicus), yielded Amax (maximum % activation achieved) of 255.3 (230.5 to 284.8) %

The compound N[C@@H](Cc1c[nH]cn1)C(=O)NCc1cccc2ccccc12 [Compound 10c] , when measured on Neurolysin (Nln) (Rattus norvegicus), yielded Amax (maximum % activation achieved) of 264 (256.3 to 272.6) %

----------
experiment: in vitro; settings: mouse, plasma
assay readout: half-life at 500 ng/mL

// sample N[C@@H](Cc1c[nH]cn1)C(=O)N[C@@H](Cc1c[nH]c2ccccc12)C(=O)O , its half-life at 500 ng/mL was > 5 h

----------
For each of the compounds below, state its Amax (maximum % activation achieved).
biological target: Neurolysin (Nln) (Rattus norvegicus, UniProt P42676); construct: polyhistidine (N); made in house; host or cells: Escherichia coli (pBAD/His vector), if the rat enzyme of b61 was used; assay: Nln activation in isolated enzyme assay (A50, Amax); type: biochemical
Sequence (P42676 38-704): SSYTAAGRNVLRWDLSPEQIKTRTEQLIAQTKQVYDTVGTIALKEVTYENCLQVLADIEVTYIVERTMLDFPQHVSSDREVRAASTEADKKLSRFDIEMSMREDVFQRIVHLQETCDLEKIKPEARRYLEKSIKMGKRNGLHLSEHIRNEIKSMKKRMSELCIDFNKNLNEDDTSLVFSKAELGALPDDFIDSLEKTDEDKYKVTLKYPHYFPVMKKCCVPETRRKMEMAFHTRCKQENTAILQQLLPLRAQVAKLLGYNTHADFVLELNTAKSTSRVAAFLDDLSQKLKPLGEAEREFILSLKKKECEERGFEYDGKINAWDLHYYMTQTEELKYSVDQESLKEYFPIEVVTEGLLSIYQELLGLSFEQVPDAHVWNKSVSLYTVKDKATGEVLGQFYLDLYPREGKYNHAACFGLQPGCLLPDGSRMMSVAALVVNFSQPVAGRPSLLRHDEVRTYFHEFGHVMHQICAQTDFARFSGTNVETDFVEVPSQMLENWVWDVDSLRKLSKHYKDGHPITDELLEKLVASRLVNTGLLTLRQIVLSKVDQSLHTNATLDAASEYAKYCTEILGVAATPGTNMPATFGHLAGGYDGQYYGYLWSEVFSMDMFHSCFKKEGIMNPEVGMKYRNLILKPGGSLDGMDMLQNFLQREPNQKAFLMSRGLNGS

// sample COc1cccc(CNC(=O)[C@H](N)Cc2cnc[nH]2)c1 , its Amax (maximum % activation achieved) was 477.1 (444 to 516) %

// sample N[C@@H](Cc1c[nH]cn1)C(=O)NCCc1cc2ccccc2[nH]1 , its Amax (maximum % activation achieved) was 259 (240.7 to 281) %

// sample N[C@H](C(=O)N1CCC[C@H]1C(=O)O)c1c[nH]cn1 , its Amax (maximum % activation achieved) was 502 (488.4 to 515.7) %

// sample N[C@H](Cc1c[nH]cn1)C(=O)NCc1ccccc1C(F)(F)F , its Amax (maximum % activation achieved) was 345.8 (317.5 to 378.3) %

// sample COc1ccc(CNC(=O)[C@@H](N)Cc2c[nH]cn2)cc1 , its Amax (maximum % activation achieved) was 428.8 (373 to 523.5) %

// sample N[C@@H](Cc1c[nH]cn1)C(=O)NCCc1ccc(C(F)(F)F)cc1 , its Amax (maximum % activation achieved) was 438.4 (379.4 to 520.4) %

// sample N[C@H](Cc1cnc[nH]1)C(=O)NCc1cccc(C(F)(F)F)c1 , its Amax (maximum % activation achieved) was 184.4 (169.4 to 201.5) %

// sample COc1cccc(CNC(=O)[C@@H](N)Cc2c[nH]cn2)c1 , its Amax (maximum % activation achieved) was 327.5 (309.7 to 348.2) %

// sample N[C@@H](Cc1c[nH]cn1)C(=O)NCc1ccc(SC(F)(F)F)cc1 , its Amax (maximum % activation achieved) was 287.5 (277.4 to 298.4) %

// sample COc1ccc(CNC(=O)[C@H](N)Cc2cnc[nH]2)cc1 , its Amax (maximum % activation achieved) was 703.5 (588.9 to 915.6) %

// sample N[C@H](Cc1c[nH]cn1)C(=O)NCc1ccc(C(F)(F)F)cc1 [Compound 5i] , its Amax (maximum % activation achieved) was 319.1 (296.3 to 344.3) %

// sample N[C@H](Cc1c[nH]cn1)C(=O)NCCc1cc2ccccc2[nH]1 , its Amax (maximum % activation achieved) was 132 (122.5 to 143.6) %

// sample N[C@H](Cc1c[nH]cn1)C(=O)NCc1cccc(C(F)(F)F)c1 , its Amax (maximum % activation achieved) was 282 (258.4 to 309.1) %

// sample N[C@H](Cc1c[nH]cn1)C(=O)NCCc1ccc(C(F)(F)F)cc1 (single isomer, unassigned) [AB-1-8-2] , its Amax (maximum % activation achieved) was 643 (588.8 to 714) %

// sample N[C@@H](Cc1c[nH]cn1)C(=O)NCCc1ccc2ccccc2c1 , its Amax (maximum % activation achieved) was 323.7 (310.3 to 337.9) %

// sample NC(Cc1c[nH]cn1)C(=O)NCCc1cc2ccccc2[nH]1 (racemic) [(±)PT-1-173 RACEMIC] , its Amax (maximum % activation achieved) was 311 (298.6 to 325.7) %

// sample COc1ccccc1CNC(=O)[C@H](N)Cc1c[nH]cn1 , its Amax (maximum % activation achieved) was 324.9 (304 to 349) %

// sample N[C@H](Cc1c[nH]cn1)C(=O)NCc1ccc(OC(F)(F)F)cc1 , its Amax (maximum % activation achieved) was 337.1 (312 to 364.9) %

// sample N[C@H](Cc1c[nH]cn1)C(=O)NCc1ccc(F)cc1 , its Amax (maximum % activation achieved) was 320.5 (299.7 to 343.9) %
